test system: A172 glioblastoma cells; assay: A172 cell growth inhibition assay (CellTiter-Glo); assay type: cell-based; details: Homo sapiens, A 172, 48-72 hours treatment, CellTiter-Glo luminescence, test range 1-30 μM
pIC50: −log10 of the molar value.
MEASURED QUANTITY: pIC50

Look over these answered cases.
{"COMPOUND": "O=S(=O)(Nc1cccc(Cl)c1)N1CCOC(C(c2ccc(F)cc2)c2ccc(F)cc2)C1 (stereo not shown) [Example 26]", "pIC50": 4.55}
{"COMPOUND": "CC(C)(C)OC(=O)Nc1ccc(NS(=O)(=O)N2CCCC(C(c3ccc(F)cc3)c3ccc(F)cc3)C2)cc1 (stereo not shown) [Example 103]", "pIC50": 4.99}
{"COMPOUND": "O=S(=O)(Nc1cccc(C(F)(F)F)c1)N1CCCC(C(c2ccc(F)cc2)c2ccc(F)cc2)C1 (stereo not shown) [Example 101]", "pIC50": 4.66}
{"COMPOUND": "O=S(=O)(Nc1ccc(Cl)cc1)N1CCOC(C(c2ccc(F)cc2)c2ccc(F)cc2)C1 (stereo not shown) [Example 25]", "pIC50": 4.71}
{"COMPOUND": "O=S(=O)(Nc1ccc(OC(F)(F)F)cc1)N1CCCC(=C(c2ccccc2)c2ccccc2)C1 [Example 105]", "pIC50": 4.69}

(I) O=S(=O)(Nc1cccc(OC(F)(F)F)c1)N1CCCC(=C(c2ccc(F)cc2)c2ccc(F)cc2)C1 [Example 112]
(II) O=S(=O)(Nc1ccc(OC(F)(F)F)cc1)N1CCCC(=C(c2ccc(F)cc2)c2ccc(F)cc2)C1 [Example 104]
[in] Pick one, I or II : lowest reported pIC50. Give the label of your selection.
[out] I
